Items are presented alongside their recorded melting point.

Look up and report measured melting point for this entry: Brc1ccc(Oc2ccc(Br)c(Br)c2)cc1Br
94 to 95 °C

Look up and report measured melting point for this entry: O=Cc1c[nH]nc1-c1cccs1
102 to 103 °C

Look up and report measured melting point for this entry: NC(=S)c1cnccc1C(F)(F)F
153 to 156 °C

Look up and report measured melting point for this entry: O=C(O)c1ccc(CSc2ccc(C(F)(F)F)cn2)o1
176 to 178 °C

Look up and report measured melting point for this entry: O=C1C=C(NCCc2ccccn2)C(=O)c2ccccc21
128 to 129 °C

Look up and report measured melting point for this entry: O=C(Nc1ccccc1Br)Nc1ccccc1Br
235 to 237 °C

Look up and report measured melting point for this entry: O=C(O)C=Cc1cc([N+](=O)[O-])ccc1Cl
218 to 222 °C

Look up and report measured melting point for this entry: O=C(O)CCCCCCCO
51 to 57 °C

Look up and report measured melting point for this entry: C1=CC2OC1c1ccccc12
53 to 58 °C

Look up and report measured melting point for this entry: COc1ncccc1N
67 to 68 °C

---

Items are presented alongside their recorded melting point.

A selection of reference data follows.
Nc1c(Br)cc(C2CCCCC2)cc1Br
37 to 38 °C
O=C(c1ccccc1)c1ccccc1NC(=O)[C@@H]1CCCN1Cc1ccccc1
100 to 103 °C

Look up and report measured melting point for this entry: NC(CCN(Cc1ccco1)S(=O)(=O)c1ccc(Cl)cc1)=NO
115 to 117 °C

Look up and report measured melting point for this entry: COc1c(Br)cc(Br)cc1Br
88 °C

Look up and report measured melting point for this entry: O=C(CCl)Nc1cccc(Cl)c1Cl
104 to 106 °C

Look up and report measured melting point for this entry: COc1nsc(N)n1
172 to 173 °C

Look up and report measured melting point for this entry: O=C(O)c1cnn(-c2ccc([N+](=O)[O-])cc2[N+](=O)[O-])c1
260 to 262 °C

---

Items are presented alongside their recorded melting point.

A selection of reference data follows.
O=C(CCl)N1CCc2c([nH]c3ccccc23)C1C(F)(F)F (stereo not drawn)
232 to 235 °C
Cc1cc(C)cc(C=O)c1
8 to 10 °C
NC(Cc1c[nH]c2ccc(F)cc12)C(=O)O (racemic)
238 to 239 °C

Look up and report measured melting point for this entry: COC(=O)/C=C(/C(=O)OC)N(Nc1ccccc1N=Nc1ccccc1)c1ccccc1
153 to 154 °C

Look up and report measured melting point for this entry: CC(C=O)=CN
101 to 103 °C

Look up and report measured melting point for this entry: O=C(C=Cc1ccccc1)c1cccs1
76 to 78 °C

Look up and report measured melting point for this entry: CN(C)C(=O)[C@@H]1OC(C)(C)O[C@H]1C(=O)N(C)C
88 to 91 °C

Look up and report measured melting point for this entry: c1ccc(-c2ccc(-c3nnc(-c4ccccc4)o3)cc2)cc1
168 to 172 °C

Look up and report measured melting point for this entry: COC(=O)C1(O)c2ccccc2-c2ccc(Cl)cc21 (stereo not drawn)
155 °C

---

Items are presented alongside their recorded melting point.

Fc1ccc(Cc2ccc(F)cc2)cc1
29 to 30 °C
COc1ccccc1-c1nc(CCl)no1
66 to 67 °C
O=C(O)c1ccc(Cl)cc1Br
159 to 161 °C
CC(C)(C)OC(=O)N1CCN(c2ccccc2N)CC1
120 to 122 °C
FC(F)(F)c1cc(N=C=S)ccc1Cl
34 to 36 °C
Cc1sc2ncnc(Cl)c2c1C
112 to 113 °C

Look up and report measured melting point for this entry: CSc1nc2nc(C)cc(C)c2c(=O)[nH]1
242 to 244 °C

Look up and report measured melting point for this entry: Clc1ccc(C(c2ccccc2)N2CCNCC2)cc1 (stereo not given)
65 to 75 °C

Look up and report measured melting point for this entry: CN(C(=S)Cl)c1ccc(F)cc1
92 to 94 °C

Look up and report measured melting point for this entry: O=C(O)C1(O)CC(O)C(O)C(O)C1 (stereo not given)
166 to 168 °C

---

Items are presented alongside their recorded melting point.

O=C1c2ccccc2C2NCCCN12 (configuration not stated)
130 to 132 °C

Look up and report measured melting point for this entry: Nc1ccc2c(c1)CCC2=O
184 to 186 °C

Look up and report measured melting point for this entry: CC(CCC(=O)O)C1CCC2C3CCC4CC(=O)CCC4(C)C3CC(O)C12C (configuration not stated)
107 to 109 °C

Look up and report measured melting point for this entry: Cc1cc(Br)cc(C)c1I
42 to 44 °C

Look up and report measured melting point for this entry: CNc1ncnc(Cl)c1[N+](=O)[O-]
134 to 139 °C

Look up and report measured melting point for this entry: CCOC(=O)c1cc2cccnc2s1
59 to 60 °C

Look up and report measured melting point for this entry: O=C1c2nonc2CCC1Br (configuration not stated)
65 to 68 °C

Look up and report measured melting point for this entry: CNCc1ccc(N2CCOCC2)s1
38 to 39 °C

---

ASSAY METRIC: melting point

A selection of reference data follows.
O=C(O)CCn1c(=O)oc2ccccc21
126 to 128 °C
O=C(O)[C@@H]1C[C@H]1c1ccccc1 (relative stereo)
86 to 92 °C
N#Cc1cccnc1Cl
107 to 109 °C

Look up and report measured melting point for this entry: O=S(=O)(Cl)Cc1ccc(Cl)c(Cl)c1
65 to 68 °C

Look up and report measured melting point for this entry: Cc1nn(C)c(NC(=O)CCl)c1Br
151 to 153 °C

Look up and report measured melting point for this entry: Cc1cc(Cl)ccc1Oc1ncccc1[N+](=O)[O-]
89 to 91 °C

Look up and report measured melting point for this entry: O=S(=O)(n1ccnc1)C(F)(F)F
19 to 21 °C

Look up and report measured melting point for this entry: CC(=O)Oc1ccc(OC(C)=O)c(C(C)(C)C)c1
64.5 to 65.5 °C

Look up and report measured melting point for this entry: O=C(O)C1CCC(C(F)(F)F)CC1 (stereo not given)
63 to 65 °C

Look up and report measured melting point for this entry: CCCCC#Cc1cncc(C(=O)NN)c1
158 to 161 °C

Look up and report measured melting point for this entry: c1ccc2cc3c(cc2c1)nnc1ncnn13
198 to 202 °C

Look up and report measured melting point for this entry: Nc1ccc(C=C/C(=N/O)c2ccccc2)cc1
138 to 139 °C

Look up and report measured melting point for this entry: O=C(O)C1(c2ccc(Cl)cc2)CCCC1
160 to 164 °C

Look up and report measured melting point for this entry: CSc1nc(N)cc(N)n1
189 to 193 °C

Look up and report measured melting point for this entry: O=C(O)CCn1cncn1
177 to 179 °C

Look up and report measured melting point for this entry: O=C1C2=C(CCCC2)C(=O)N1CO
80 to 84 °C

Look up and report measured melting point for this entry: OC(CCl)c1ccc(Cl)cc1Cl (stereo not given)
48 to 52 °C

---

Peptide text beside a SMILES is read from it.
ASSAY METRIC: melting point

FC(F)(F)c1ccc2c(Cl)ccnc2c1
69 to 73 °C
CC1=NN(c2ccccc2)C(=O)C1=CC1C(=O)N(c2ccccc2)N=C1C (stereo unspecified)
180 to 181 °C
Clc1cccc2c(C#Cc3ccccc3)c3ccccc3c(C#Cc3ccccc3)c12
199 to 204 °C
O=C(O)CCc1c(Cl)cccc1Cl
95 to 97 °C
Nc1ccc(Br)cc1N
62 to 64 °C

Look up and report measured melting point for this entry: CC1(C)OC[C@H](CC(N)=O)O1
108 to 109 °C

Look up and report measured melting point for this entry: FC(F)(F)C(F)(F)C(F)(F)C(F)(F)C(F)(F)C(F)(F)C(F)(F)C(F)(F)C(F)(F)C(F)(F)C(F)(F)C(F)(F)F
75 to 77 °C

Look up and report measured melting point for this entry: N[C@@H](CC(=O)O)C(=O)N[C@@H](Cc1ccccc1)C(=O)O (H-Asp-Phe-OH)
236 to 239 °C

Look up and report measured melting point for this entry: Clc1nccnc1Cl
22.5 to 24.5 °C

Look up and report measured melting point for this entry: O=[N+]([O-])c1ccc2c3c(cccc13)-c1ccccc1-2
153 to 157 °C

Look up and report measured melting point for this entry: NC(=O)CC1(CC(=O)O)CCCCC1
140 to 145 °C

Look up and report measured melting point for this entry: ON=CC1=C(/C=C/c2ccccc2)CCC1
162 to 163 °C

Look up and report measured melting point for this entry: NCc1ccc(-c2ccsc2)cc1
116 to 117 °C

Look up and report measured melting point for this entry: NC(=O)C=CC(F)(F)F
147 to 150 °C

Look up and report measured melting point for this entry: O=C(Cl)c1sccc1Cl
45 to 46 °C

Look up and report measured melting point for this entry: CC12CCC(=O)CC1(O)CCC2=O (single isomer, unassigned; (+))
110 to 118 °C
